- Assayed Target: rat P2X3 receptor (Rattus norvegicus, UniProt P49654)
- Construct: expressed in transfected cells; host or cells: CHO-K1
- Sequence (P49654 1-397): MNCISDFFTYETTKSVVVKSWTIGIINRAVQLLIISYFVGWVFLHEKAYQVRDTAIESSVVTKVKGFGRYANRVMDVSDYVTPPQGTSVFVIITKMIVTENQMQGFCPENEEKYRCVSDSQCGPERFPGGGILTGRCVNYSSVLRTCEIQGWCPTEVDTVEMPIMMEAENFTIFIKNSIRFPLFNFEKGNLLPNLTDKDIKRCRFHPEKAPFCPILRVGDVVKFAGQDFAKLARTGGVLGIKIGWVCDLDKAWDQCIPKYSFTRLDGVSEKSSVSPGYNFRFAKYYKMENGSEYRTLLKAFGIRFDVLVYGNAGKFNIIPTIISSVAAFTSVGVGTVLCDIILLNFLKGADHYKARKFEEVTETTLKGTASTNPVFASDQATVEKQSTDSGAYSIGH
- Assay Text: P2X3/P2X2/3 FLIPR (Fluorometric Imaging Plate Reader) Assay, P2X3
- Assay type: cell-based
- Experimental Context: CHO-K1 cells transfected with rat P2X3; agonist α,β-meATP 1 μM; Table 1; read-out: P2X3 pKi (converted)
- Protocol: P2X3/P2X2/3 FLIPR (Fluorometric Imaging Plate Reader) Assay CHO-K1 cells were transfected with cloned rat P2X3 or human P2X2/3 receptor subunits and passaged in flasks. […] Test compounds (dissolved in DMSO at 10 mM and serially diluted with FB) or vehicle were added to each well (25 μl of a 4× solution) and allowed to equilibrate for 20 minutes at room temperature. […] Fluorescence was measured for an additional 2 minutes at 1 second intervals after agonist addition. […]
Label yes when Ki is strictly below 70 nM; otherwise label no.

These recorded examples may help you get a feel for the data.
Cc1ccc(-c2cc(C(=O)N[C@@H](C)CO)cc(-c3ncnn3C(C)C)c2)cc1	yes
CCc1ncnn1-c1cc(C(=O)NC2CC2)cc(-c2ccc(C)cn2)c1	yes
Cc1cnc(CNC(=O)c2cc(-c3ccc(Cl)cn3)cc(-n3ncnc3C(C)N(C)C)c2)cn1 (stereo not drawn)	yes
COC(C)c1ncnn1-c1cc(C(=O)N[C@@H](C)CO)cc(-c2ccc(C)cn2)c1 (stereo partly drawn)	no
COC[C@@H](C)NC(=O)c1cc(-c2ccc(C)cc2)cc(-n2cnnc2C(C)C)c1	no

Could you now consider this next compound?
Does the reported Ki of "Cc1ccc(-c2cc(C(=O)NCc3cnc(C)cn3)cc(-n3ncnc3-c3ccccc3)c2)nc1" stay below 70 nM? yes
